These data points were gathered from ChEMBL document CHEMBL1158430.

# Tested on: Candida albicans
# Measurement Description: Antifungal activity against Candida albicans PCA-2 after 48 hrs by broth microdilution assay
# Type: functional
# Conditions Used: PCA-2, 48 h
Property: MIC

Known MIC results, listed for orientation:
- CCCCC1Oc2ccc(OC[C@H]3CO[C@](Cn4ccnc4)(c4ccc(Cl)cc4Cl)O3)cc2N(C)C1=O (relative stereo): 125 µg/mL
- CN1C(=O)COc2ccc(OC[C@@H]3CO[C@](Cn4ccnc4)(c4ccc(Cl)cc4Cl)O3)cc21 (relative stereo): > 500 µg/mL

API: value(readout= MIC, system= Candida albicans, query= CN1C(=O)COc2ccc(OC[C@H]3CO[C@](Cn4ccnc4)(c4ccc(Cl)cc4Cl)O3)cc21 (relative stereo) )
> 500 µg/mL

API: value(readout= MIC, system= Candida albicans, query= OC(Cn1cncn1)(Cn1cncn1)c1ccc(F)cc1F [FLUCONAZOLE] )
> 500 µg/mL

API: value(readout= MIC, system= Candida albicans, query= CC(=O)N1CCN(c2ccc(OCC3COC(Cn4ccnc4)(c4ccc(Cl)cc4Cl)O3)cc2)CC1 (stereo unspecified) [KETOCONAZOLE] )
15.6 µg/mL

API: value(readout= MIC, system= Candida albicans, query= CCCCC1Oc2ccc(OC[C@@H]3CO[C@](Cn4ccnc4)(c4ccc(Cl)cc4Cl)O3)cc2N(C)C1=O (relative stereo) )
> 500 µg/mL

---

# System: Nakaseomyces glabratus
# Measurement Description: Antifungal activity against Candida glabrata after 24 hrs by broth microdilution assay
# Type: functional
Property: log10 of MIC (log10 of the value in µg/mL)
Please note: log10 values; quantity MIC; unit µg/mL.

• CCCCC1Oc2ccc(OC[C@H]3CO[C@](Cn4ccnc4)(c4ccc(Cl)cc4Cl)O3)cc2N(C)C1=O (relative stereo) = 1.49
• CCCCC1Oc2ccc(OC[C@@H]3CO[C@](Cn4ccnc4)(c4ccc(Cl)cc4Cl)O3)cc2N(C)C1=O (relative stereo) = 1.80
• CC(=O)N1CCN(c2ccc(OCC3COC(Cn4ccnc4)(c4ccc(Cl)cc4Cl)O3)cc2)CC1 (stereo unspecified) = -0.92
• CN1C(=O)COc2ccc(OC[C@@H]3CO[C@](Cn4ccnc4)(c4ccc(Cl)cc4Cl)O3)cc21 (relative stereo) = 1.19

API: value(readout= log10 of MIC, system= Nakaseomyces glabratus, query= OC(Cn1cncn1)(Cn1cncn1)c1ccc(F)cc1F )
2.10

API: value(readout= log10 of MIC, system= Nakaseomyces glabratus, query= CN1C(=O)COc2ccc(OC[C@H]3CO[C@](Cn4ccnc4)(c4ccc(Cl)cc4Cl)O3)cc21 (relative stereo) )
0.89

---

As shown below, each of these compounds has a reported MIC value.
# Test system: Pichia kudriavzevii
# Measurement Description: Antifungal activity against Candida krusei after 24 hrs by broth microdilution assay
# Format: functional
Numeric only. Scale: µg/mL

Known MIC results, listed for orientation:
- CCCCC1Oc2ccc(OC[C@H]3CO[C@](Cn4ccnc4)(c4ccc(Cl)cc4Cl)O3)cc2N(C)C1=O (relative stereo): 3.9
- CN1C(=O)COc2ccc(OC[C@H]3CO[C@](Cn4ccnc4)(c4ccc(Cl)cc4Cl)O3)cc21 (relative stereo): 15.6

I have this compound here, CCCCC1Oc2ccc(OC[C@@H]3CO[C@](Cn4ccnc4)(c4ccc(Cl)cc4Cl)O3)cc2N(C)C1=O (relative stereo) , and I need its recorded MIC.
3.9

I have this compound here, CN1C(=O)COc2ccc(OC[C@@H]3CO[C@](Cn4ccnc4)(c4ccc(Cl)cc4Cl)O3)cc21 (relative stereo) , and I need its recorded MIC.
15.6

I have this compound here, CC(=O)N1CCN(c2ccc(OCC3COC(Cn4ccnc4)(c4ccc(Cl)cc4Cl)O3)cc2)CC1 (stereo unspecified) , and I need its recorded MIC.
0.49

I have this compound here, OC(Cn1cncn1)(Cn1cncn1)c1ccc(F)cc1F , and I need its recorded MIC.
250
